Catalogue of normalized RNA/DNA level with ligand (log10) values
B1: library; a variant is named by its letters at N, in order (parent)
chain: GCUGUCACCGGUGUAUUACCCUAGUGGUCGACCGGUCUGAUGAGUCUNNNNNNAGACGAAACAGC

Variants of: B1
Test: normalized RNA/DNA level with ligand (relative to sTRSVctl = 100) (log10 (% of sTRSVctl)); ligand: hypoxanthine (xanthine aptamer); higher = less ribozyme self-cleavage, higher mRNA level
Conditions: ligand concentration (+) RNA-Seq: 5 mM, HEK293T, reporter: mCherry (pCS4076), ligand present: yes
Could you respond with only the numeric value?

Use the examples below as a reference point.
GUGAGG; 1.7
AAACAA; 1.9
UGUCAG; 1.89
GCUCAU; 1.95
CCAUUA; 1.93
GUUGAC; 1.92

Ask | Bench note: what normalized RNA/DNA level with ligand (log10) did AUGGAA show?
Reply | 1.88

Ask | Bench note: what normalized RNA/DNA level with ligand (log10) did UUGAAC show?
Reply | 1.92

Ask | Bench note: what normalized RNA/DNA level with ligand (log10) did UUACCA show?
Reply | 1.95

Ask | Bench note: what normalized RNA/DNA level with ligand (log10) did UACUUC show?
Reply | 1.98
